Entries annotated with measured IC50
biological target: UniProtKB P06276; assay: Inhibition of human plasma BChE after 20 mins by Ellman's method

>  <MOLECULE>
CC(C)=CCN1CCC2(CC=C(C)C)c3ccccc3N(CC=C(C)C)C12 (stereo unspecified)

>  <IC50 / µM>
1.72

$$$$
>  <MOLECULE>
CC(C)=CCN1c2ccccc2C2(CC=C(C)C)CCN(C)C12 (racemic) [(+/-)-DEBROMOFLUSTRAMINE B]

>  <IC50 / µM>
2.59

$$$$
>  <MOLECULE>
CC(C)=CCC12CCN(C)C1N(Cc1ccccc1)c1ccccc12 (stereo unspecified)

>  <IC50 / µM>
10

$$$$
>  <MOLECULE>
CC(C)=CCN1c2ccccc2C2(CC=C(C)C)CCNC12 (stereo unspecified)

>  <IC50 / µM>
0.26

$$$$
>  <MOLECULE>
COc1ccc2c(c1)C1(CC=C(C)C)CCN(C)C1N2Cc1ccccc1 (stereo unspecified)

>  <IC50 / µM>
7.54

$$$$
>  <MOLECULE>
CC(C)=CCN1c2ccccc2[C@@]2(CC=C(C)C)CCN(C)[C@@H]12 [(+)-DEBROMOFLUSTRAMINE B]

>  <IC50 / µM>
10300

$$$$

###

target: Cholinesterase (Homo sapiens); test: Inhibition of human plasma BChE at <10000 uM after 20 mins by Ellman's method; assay type: cell-free
Sequence (P06276 whole entry): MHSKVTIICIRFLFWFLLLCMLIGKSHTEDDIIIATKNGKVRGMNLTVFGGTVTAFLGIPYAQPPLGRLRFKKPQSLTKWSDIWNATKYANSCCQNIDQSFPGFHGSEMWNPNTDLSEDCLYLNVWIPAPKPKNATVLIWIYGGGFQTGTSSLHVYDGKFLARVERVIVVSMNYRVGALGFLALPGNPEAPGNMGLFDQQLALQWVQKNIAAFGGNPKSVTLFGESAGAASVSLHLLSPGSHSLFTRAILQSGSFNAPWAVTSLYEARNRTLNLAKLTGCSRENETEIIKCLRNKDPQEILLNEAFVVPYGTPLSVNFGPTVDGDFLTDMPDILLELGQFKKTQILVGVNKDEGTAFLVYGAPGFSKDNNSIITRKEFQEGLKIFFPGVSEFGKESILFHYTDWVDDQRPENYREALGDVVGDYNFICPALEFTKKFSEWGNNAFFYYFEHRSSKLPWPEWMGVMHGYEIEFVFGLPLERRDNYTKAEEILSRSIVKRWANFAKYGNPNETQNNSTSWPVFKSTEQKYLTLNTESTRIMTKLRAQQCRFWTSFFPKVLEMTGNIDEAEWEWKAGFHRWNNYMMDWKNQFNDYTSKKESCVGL
Active and inactive are the calls of the source. The calls are words filed in the database; no cut-off is given here.

>  <COMPOUND>
CC(C)=CCN1c2ccccc2C2(CC=C(C)C)CCN(Cc3ccccc3)C12 (stereo not drawn)

>  <ASSAY_SYSTEM>
Cholinesterase (Homo sapiens)

>  <Activity>
inactive

$$$$
>  <COMPOUND>
CN1CCC2(Cc3ccncc3)c3ccccc3N(Cc3ccncc3)C12 (stereo not drawn)

>  <ASSAY_SYSTEM>
Cholinesterase (Homo sapiens)

>  <Activity>
inactive

$$$$
>  <COMPOUND>
COc1ccc2c(c1)C1(Cc3ccccc3)CCN(Cc3ccccc3)C1N2Cc1ccccc1 (stereo not drawn)

>  <ASSAY_SYSTEM>
Cholinesterase (Homo sapiens)

>  <Activity>
inactive

$$$$
